Test system: RXF 631
Assay: NCI tumour cell line growth inhibition, 48 h
Active and inactive are the calls of the source. No stated cut-off is given here; in the data, active = GI50 up to about 1.1 µM and inactive = higher.
Each entry below carries its reported GI50.

{"compound": "COc1ccc(OC)c(NCC#N)c1", "targetSystem": "RXF 631", "result": "> 100 µM (inactive)"}
{"compound": "C=CCC1[C@@H](C(C)(C)C(C(C)=O)C(=O)C(=O)OC)OC(C(C)(C)C)N1C(=O)OC (some centres undefined)", "targetSystem": "RXF 631", "result": "> 100 µM (inactive)"}
{"compound": "COc1cc2c(cc1OC)C(Cl)C(c1ccc(Cl)cc1)=C2Cl (centres undefined)", "targetSystem": "RXF 631", "result": "21.3 µM (inactive)"}
{"compound": "CC(=O)OCCOCNC(=S)N/N=C/c1cc([N+](=O)[O-])ccc1O", "targetSystem": "RXF 631", "result": "> 100 µM (inactive)"}
{"compound": "CCCCC#C[I+]c1ccccc1", "targetSystem": "RXF 631", "result": "9.71 µM (inactive)"}
{"compound": "CC(=O)OCCOCNC(=S)N/N=C/c1ccc2ccccc2n1", "targetSystem": "RXF 631", "result": "55.6 µM (inactive)"}
{"compound": "CC(O)/C=C/C(CCC(C)CO)C(C)C (centres undefined)", "targetSystem": "RXF 631", "result": "> 100 µM (inactive)"}
{"compound": "CCCCCCCC/C=C1\\CCC(CN2CCOCC2)C1=O (centres undefined)", "targetSystem": "RXF 631", "result": "8.95 µM (inactive)"}

Field: GI50 (RXF 631). Entry: `O=C1C(c2ccccc2)=[N+]([O-])c2cc([N+](=O)[O-])c(/C(Cl)=C/c3ccccc3)cc21`
6.7 µM (inactive)

---

Tested on: ACHN
Assay: NCI tumour cell line growth inhibition, 48 h
Active and inactive are the calls of the source. No stated cut-off is given here; in the data, active = GI50 up to about 1.1 µM and inactive = higher.
# output must be one of T (active), F (inactive)

{"compound": "O=c1c2cc(Br)ccc2nc(CCl)n1-c1ccc(O)c([N+](=O)[O-])c1", "targetSystem": "ACHN", "classLabel": "F"}

Which outcome did this test record for the compound `CCCCCCCCCCCCOCCCCCCCCC/C=C/c1ccc2c(c1)OCCOCCOCCOCCO2` ?
F

Which outcome did this test record for the compound `CN(C)c1ccc(/C=C/C(=O)O)cc1` ?
F

Which outcome did this test record for the compound COc1cc(C2C3=C(COC3=O)Oc3cc4c(cc32)OCO4)ccc1O (configuration not stated) ?
T

Which outcome did this test record for the compound `O=S(=O)(Nc1nc2ccccc2nc1Nc1ccc2ccccc2c1)c1ccccc1` ?
F

Which outcome did this test record for the compound O=C1/C(=C/c2n[nH]cc2-c2ccc(Cl)cc2)C(=O)N(c2ccccc2)C1c1ccccc1 (configuration not stated) ?
F

Which outcome did this test record for the compound `O=P1(Cc2ccccc2)N(Cc2ccccc2)[C@@H]2CCCC[C@H]2N1Cc1ccccc1` ?
F

---

Tested on: RPMI-8226
Assay: NCI tumour cell line growth inhibition, 48 h
Active and inactive are the calls of the source. Rule as the data show it: active = GI50 up to about 1.1 µM and inactive = higher.
experimentalReadout: GI50

Look over these answered cases.
{"molecule": "c1ccc2c(c1)-c1ccccc1C2N1CC2CCC(CC2)C1", "GI50": "20.4 µM (inactive)"}
{"molecule": "C=C(C(=C)P(=S)(c1ccccc1)c1ccccc1)P(=S)(c1ccccc1)c1ccccc1", "GI50": "8.75 µM (inactive)"}
{"molecule": "CCOC(=O)C1(Cc2ccc3c(c2)CCC3)Cc2cc3c(cc2C1)CCC3", "GI50": "14.6 µM (inactive)"}
{"molecule": "COc1cc(Nc2cc(Cl)cc(Cl)c2)nc(N)n1", "GI50": "19.9 µM (inactive)"}
{"molecule": "O=C1NN=C(c2c[nH]c3ccccc23)CC1NCc1ccccc1 (stereo unspecified)", "GI50": "> 100 µM (inactive)"}
{"molecule": "C=C1CC(OC)(C(O)C(=O)N[C@H]2OCO[C@H]3C2O[C@H](C[C@H](O)COC)C(C)(C)C3OC)O[C@H](C)[C@@H]1C (stereo partly specified)", "GI50": "< 0.00773 µM (active)"}
{"molecule": "COc1cc2c(c(OC)c1OC)-c1ccc(SC)c(=O)cc1[C@@H](NC(=O)c1ccc(C#N)cc1)CC2", "GI50": "< 0.01 µM (active)"}
{"molecule": "Cc1cc(C)n(C2OC(CO)C(O)C(O)C2O)c(=S)c1C#N (stereo unspecified)", "GI50": "> 100 µM (inactive)"}

Form field: reported GI50 of `CC(C)(C)OC(=O)N(CCCCNCc1ccc2ccccc2c1)CCCNCc1ccc2ccccc2c1`
1.08 µM (active)

Form field: reported GI50 of `COc1c(C2(c3ccc(F)cc3)SCCCS2)c(=O)c1=O`
> 100 µM (inactive)

Form field: reported GI50 of `O=C(CSSCC(=O)Nc1ccc(Br)cc1)Nc1ccc(Br)cc1`
21.6 µM (inactive)

Form field: reported GI50 of CC(=O)OCC1=C(CCC#N)N2C(=O)C(NC(=O)Cc3cccs3)C2[S+]([O-])C1 (stereo unspecified)
> 100 µM (inactive)

Form field: reported GI50 of `CC(=O)OC(OC(C)=O)c1c2ccccc2cc2ccccc12`
16.6 µM (inactive)

Form field: reported GI50 of O=C1/C(=C/c2n[nH]cc2-c2ccc(Cl)cc2)C(=O)N(c2ccccc2)C1c1ccccc1 (stereo unspecified)
13.7 µM (inactive)

Form field: reported GI50 of `O=C(Nc1nc(C23CC4CC(CC(C4)C2)C3)cs1)c1cc2cc([N+](=O)[O-])ccc2oc1=O`
> 100 µM (inactive)

---

Tested on: RPMI-8226
Experiment: NCI tumour cell line growth inhibition, 48 h
The source made the active and inactive calls. Rule as the data show it: active = GI50 up to about 1.1 µM and inactive = higher.
experimentalReadout: GI50

Look over these answered cases.
{"molecule": "Cc1cccc2c1Oc1cc(Cl)ccc1C2NC(=O)CN(C)C (centres undefined)", "GI50": "29.2 µM (inactive)"}
{"molecule": "CC(C)C[S+]1C2=C(CC(C)(C)CC2=O)[N-]c2ccccc21 (centres undefined)", "GI50": "> 100 µM (inactive)"}
{"molecule": "Oc1cc(-c2cccc(Br)c2)nc2cc3c(cc12)OCO3", "GI50": "15 µM (inactive)"}
{"molecule": "O=c1oc2c3ccc4ccccc4c3n(CCN3CCCCC3)c2c2ccccc12", "GI50": "> 100 µM (inactive)"}
{"molecule": "COc1ccc2c(O)c1-c1c(OC)ccc(c1O)SSc1ccc(OC)c(c1O)-c1c(OC)ccc(c1O)SS2", "GI50": "1.99 µM (inactive)"}
{"molecule": "CC1=C(O)C(=O)[C@@H]2O[C@@H]2C1=O", "GI50": "3.46 µM (inactive)"}

Form field: reported GI50 of `COc1cc(OC)cc(-c2cc(=O)c3c(OC)c(OC)c(OC)c(OC)c3o2)c1`
16.9 µM (inactive)

Form field: reported GI50 of CC(C)N(C(=O)C12C3C4C5(C#N)C3C1(C#N)C5C42C#N)C(C)C (centres undefined)
> 100 µM (inactive)

---

Each entry below carries its reported GI50.
Tested on: ACHN
Assay: NCI tumour cell line growth inhibition, 48 h
Calls of active or inactive are those of the source. No stated cut-off is given here; in the data, active = GI50 up to about 1.1 µM and inactive = higher.

Look over these answered cases.
{"compound": "C#CC[C@]12CC(=O)CC[C@H]1CC(=O)C2", "GI50": "> 100 µM (inactive)"}
{"compound": "CC(C)=CC[S+]([O-])c1ccccc1NC1=CC(=O)CC(C)(C)C1 (stereo not drawn)", "GI50": "> 100 µM (inactive)"}

Switching to the query record.
Field: GI50 (ACHN). Entry: `C/C(=C1/N=C(c2ccccc2)OC1=O)c1ccccc1`
74.6 µM (inactive)

---

Tested on: A549
Assay: NCI tumour cell line growth inhibition, 48 h
The source made the active and inactive calls. No stated cut-off is given here; in the data, active = GI50 up to about 1.1 µM and inactive = higher.
Each entry below carries its reported GI50.

Look over these answered cases.
{"compound": "COc1cc(CC(C)NC(C)=O)cc(OC)c1 (stereo not given)", "experimentalReadout": "GI50", "result": "> 100 µM (inactive)"}
{"compound": "CC(C)(C)OC(=O)N(CCCCNCc1ccc2ccccc2c1)CCCNCc1ccc2ccccc2c1", "experimentalReadout": "GI50", "result": "1.81 µM (inactive)"}
{"compound": "CN(C)c1ccc(/C=C/C(=O)O)cc1", "experimentalReadout": "GI50", "result": "> 100 µM (inactive)"}
{"compound": "COC(=O)C1=C(C(=O)OC)SC2(S1)C(C(=O)OC)=C(C(=O)OC)Sc1c2ss/c1=N\\c1ccc(Cl)cc1", "experimentalReadout": "GI50", "result": "1.56 µM (inactive)"}
{"compound": "COc1ccc(-c2nc(O)c3ccccc3n2)cc1", "experimentalReadout": "GI50", "result": "> 100 µM (inactive)"}

Form field: reported GI50 of CC1CC2OC(=O)C3CC(O)CC(=C23)[C@@]12C[C@@H](c1ccoc1)OC2=O (stereo not given in full)
> 100 µM (inactive)

Form field: reported GI50 of O=C(OC1C#CCSCC#C/C=C\1)c1ccc2c(c1)C(=O)c1ccccc1C2=O (stereo not given)
> 100 µM (inactive)

Form field: reported GI50 of `Cc1cc2c(c(C(=O)NCCC(=O)O)c1)Oc1c(cc(C)cc1C(=O)NCCC(=O)O)S2`
> 100 µM (inactive)

Form field: reported GI50 of Cc1cc(C)c(N[S+]([O-])c2cccc(C(F)(F)F)c2)c(C)c1 (stereo not given)
> 100 µM (inactive)

Form field: reported GI50 of `CCOC(=O)/C(C(=O)Nc1ccc(Cl)cc1)=C(/N)N1CCOCC1`
> 100 µM (inactive)

meta.source: ChEMBL document CHEMBL1201862
